Hey, just so you know, these numbers are from ChEMBL document CHEMBL1201862.

Tested on: SW-620
Assay Name: NCI tumour cell line growth inhibition, 48 h
Calls of active or inactive are those of the source. No stated cut-off is given here; in the data, active = GI50 up to about 1.1 µM and inactive = higher.
Endpoint: GI50

- Compound: "O=c1c2cccnc2ncn1CCCN1CCCC1"
  Endpoint: "GI50"
  Assay Result: "> 100 µM (inactive)"
- Compound: "Cc1cc(C)c(C)c(-n2[nH]c(=O)n(C)c2=O)c1C"
  Endpoint: "GI50"
  Assay Result: "> 100 µM (inactive)"
- Compound: "COc1c(O)cc2c(c1O)C1O[C@H](CO)C(O)[C@H](O)[C@H]1OC2=O (stereo not given in full)"
  Endpoint: "GI50"
  Assay Result: "> 100 µM (inactive)"
- Compound: "CN(Cc1cc(Br)cc(Br)c1O)Cc1c(O)ccc2ccccc12"
  Endpoint: "GI50"
  Assay Result: "32 µM (inactive)"
- Compound: "COc1cc2c(cc1OC)CN1CCc3ccccc3CC1C2 (stereo not given)"
  Endpoint: "GI50"
  Assay Result: "37.8 µM (inactive)"
- Compound: "CCOC(=O)/C(=C/c1cc(OC)ccc1OC)CC(=O)O"
  Endpoint: "GI50"
  Assay Result: "> 100 µM (inactive)"
- Compound: "CN(C)c1ccc(/C=C2\\Oc3cc(O)ccc3C2=O)cc1"
  Endpoint: "GI50"
  Assay Result: "48.9 µM (inactive)"
- Compound: "O=c1[nH]nc(-c2ccccc2)n1/N=C\\c1ccccc1"
  Endpoint: "GI50"
  Assay Result: "> 100 µM (inactive)"
- Compound: "CC1=CC(=O)/C(=C(/C)NCCN(CCN/C(C)=C2\\C(=O)C=C(C)OC2=O)CCN/C(C)=C2\\C(=O)C=C(C)OC2=O)C(=O)O1"
  Endpoint: "GI50"
  Assay Result: "> 100 µM (inactive)"
- Compound: "CC(C)(C)CN1[C@@H]2CCCC[C@H]2N(CC(C)(C)C)P1(=O)C(O)/C=C/c1ccccc1 (stereo not given in full)"
  Endpoint: "GI50"
  Assay Result: "34.2 µM (inactive)"
